# Target or test system: BACE1 (Homo sapiens (Human), UniProt P56817)
# Sequence (P56817 46-501, species assumed): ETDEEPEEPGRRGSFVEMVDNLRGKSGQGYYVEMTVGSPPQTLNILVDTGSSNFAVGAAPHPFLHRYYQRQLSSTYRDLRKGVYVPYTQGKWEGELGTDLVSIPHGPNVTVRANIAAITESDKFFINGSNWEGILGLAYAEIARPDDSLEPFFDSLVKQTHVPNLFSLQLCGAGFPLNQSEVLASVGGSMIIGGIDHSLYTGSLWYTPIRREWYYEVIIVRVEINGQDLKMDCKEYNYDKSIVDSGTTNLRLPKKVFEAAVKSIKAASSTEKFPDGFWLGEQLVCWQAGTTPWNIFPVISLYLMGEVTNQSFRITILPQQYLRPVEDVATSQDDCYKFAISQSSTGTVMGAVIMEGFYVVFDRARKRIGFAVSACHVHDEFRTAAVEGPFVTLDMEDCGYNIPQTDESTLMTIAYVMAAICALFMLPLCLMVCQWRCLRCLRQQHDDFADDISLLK
# Test method notes: In vitro BACE1 cell-based assay (Aβ40 in conditioned medium, HTRF)
# Measurement context: Aβ40 in conditioned medium of cells expressing APP, 24 h
pIC50: −log10 of the molar value.
Item-by-item account of pIC50
Measured endpoint: pIC50

compound="CC#CCOc1cnc(/C(F)=C/c2ccc(F)c([C@@]3(C)N=C(N)OC[C@@H]3OCC(F)(F)F)c2)cn1 [Example 113]" target_or_test_system="BACE1 (Homo sapiens (Human), UniProt P56817)" assay_value=7.32
compound="NC1=N[C@@](c2cc(/C=C(\\F)c3ccc(Cl)cn3)ccc2F)(C(F)F)[C@H]2C[C@H]2O1 [Example 101]" target_or_test_system="BACE1 (Homo sapiens (Human), UniProt P56817)" assay_value=5.95
compound="C#CCOc1cnc(/C(F)=C/c2ccc(F)c([C@]3(C)CO[C@@](C)(C(F)(F)F)C(N)=N3)c2)cn1 [Example 107]" target_or_test_system="BACE1 (Homo sapiens (Human), UniProt P56817)" assay_value=6.95
compound="C[C@@]1(c2cc(/C=C(\\F)c3ccc(C#N)cn3)ccc2F)CO[C@@](C)(C(F)(F)F)C(N)=N1 [Example 104]" target_or_test_system="BACE1 (Homo sapiens (Human), UniProt P56817)" assay_value=6.82
compound="C[C@]1(c2nc(/C=C(\\F)c3ccc(C#N)cn3)ccc2F)N=C(N)OCC1(F)F [Example 116]" target_or_test_system="BACE1 (Homo sapiens (Human), UniProt P56817)" assay_value=6.17
compound="C[C@]1(c2cc(/C=C(\\F)c3ccc(C#N)cn3)ccc2F)N=C(N)OCC1(F)F [Example 114]" target_or_test_system="BACE1 (Homo sapiens (Human), UniProt P56817)" assay_value=5.58
compound="C[C@@]1(c2cc(/C=C(\\F)c3cnc(Cl)cn3)ccc2F)CO[C@@](C)(C(F)(F)F)C(N)=N1 [Example 108]" target_or_test_system="BACE1 (Homo sapiens (Human), UniProt P56817)" assay_value=6.18
compound="C[C@@]1(c2nc(/C=C(\\F)c3ccc(C#N)cn3)ccc2F)CO[C@@](C)(C(F)(F)F)C(N)=N1 [Example 117]" target_or_test_system="BACE1 (Homo sapiens (Human), UniProt P56817)" assay_value=7.05
compound="C#CCOc1cnc(/C(F)=C/c2ccc(F)c([C@@]3(C)N=C(N)OC[C@@H]3OCC(F)(F)F)c2)cn1 [Example 111]" target_or_test_system="BACE1 (Homo sapiens (Human), UniProt P56817)" assay_value=7.23
